These data points were gathered from the supplement of paper PMC10567573.

# Measurement Description: protein stability index of a GFP-peptide fusion (GPS, HEK-293T) (PSI 1-6); higher = more stable;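 further: 24-mer peptide tiles fused after GFP, lentivirally expressed, FACS-sorted into six equal bins by GFP/DsRed ratio, decoded by Illumina sequencing, PSI is the read-weighted mean bin number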
# Run Conditions: treatment: MLN4924 1 uM, 8 h; c terminus: a fixed tail appended
Observed Property: protein stability index
The response must contain the number and no unit.

RPISGTAVAHKTPRCPGSVNEKLP [SMOC2]	4.59
QTVFQKKNLQQTTNTTSTQMTNIG [IQUB]	4.28
AQLYEDFLFPIDISLVKREHDFLD [DLC1]	2.7
QTEETQETALTLACCGGFLEVADF [ANKRD17]	3.96
ALSEILRIGKRPDLLTFVQNLCKG [NEUROD6]	2.29

Proceeding to the next sequence to report its protein stability index.
Reported protein stability index for AMKSVHENMDLNKIDDLMQEITEQ [CHMP4C] : what is it? 4.85
